The origin of these recorded values is ChEMBL document CHEMBL1126759.

Molecular target: Human immunodeficiency virus type 1 protease (Human immunodeficiency virus 1, UniProt Q72874)
Experimental Endpoint: pIC50
For clarity, pIC50 is expressed as the negative log10 of concentration in mol/L.

Field: example entries. Status: answers known.
Chemical Structure: CC(C)(C)NC(=O)[C@@H]1C[C@@H]2CCCC[C@@H]2CN1C[C@@H](O)[C@H](Cc1ccccc1)NC(=O)[C@@H](NC(=O)c1ccc2ccccc2n1)[C@@H]1CCS(=O)(=O)C1
pIC50: 7.41

Chemical Structure: CC(C)[C@H](NC(=O)c1ccc2ccccc2n1)C(=O)N[C@@H](Cc1ccccc1)[C@H](O)CN1C[C@H]2CCCC[C@H]2C[C@H]1C(=O)NC(C)(C)C
pIC50: 9.15

Chemical Structure: CC(C)(C)NC(=O)[C@@H]1C[C@@H]2CCCC[C@@H]2CN1C[C@@H](O)[C@H](Cc1ccccc1)NC(=O)[C@@H](NC(=O)c1ccc2ccccc2n1)[C@H]1CCS(=O)(=O)C1
pIC50: 9.30

Chemical Structure: CC(C)(C)NC(=O)[C@@H]1C[C@@H]2CCCC[C@@H]2CN1C[C@@H](O)[C@H](Cc1ccccc1)NC(=O)[C@@H](NC(=O)c1cnc2ccccc2n1)[C@H]1CCOC1
pIC50: 9.92

Chemical Structure: CC(C)[C@H](NC(=O)c1cc(=O)c2ccccc2o1)C(=O)N[C@@H](Cc1ccccc1)[C@H](O)CN1C[C@H]2CCCC[C@H]2C[C@H]1C(=O)NC(C)(C)C
pIC50: 9.82

Query: Annotate the compound CC(C)(C)NC(=O)[C@@H]1C[C@@H]2CCCC[C@@H]2CN1C[C@@H](O)[C@H](Cc1ccccc1)NC(=O)[C@@H](NC(=O)c1ccc2ccccc2n1)[C@@H]1CCOC1 with its measured pIC50.
Response: 8.27

Query: Annotate the compound CC(C)(C)NC(=O)[C@@H]1C[C@@H]2CCCC[C@@H]2CN1C[C@@H](O)[C@H](Cc1ccccc1)NC(=O)[C@@H](NC(=O)c1ccc2ccccc2n1)C1CCCC1 with its measured pIC50.
Response: 8.59

###

Biological target: Human immunodeficiency virus type 1 protease (Human immunodeficiency virus 1)
Assay: Tested for inhibitory concentration against spread of HIV-1 in MT-4 human T-lymphoid cells infected with IIIb isolate
Assay type: functional, cell-based
Experimental Endpoint: log10 IC95 (log10 of the value in nM)
Values below are the log10 of the recorded IC95, with nM as the unit.

Field: example entries. Status: answers known.
Compound: CC(C)[C@H](NC(=O)c1cc(=O)c2ccccc2o1)C(=O)N[C@@H](Cc1ccccc1)[C@H](O)CN1C[C@H]2CCCC[C@H]2C[C@H]1C(=O)NC(C)(C)C
Tested Target: Human immunodeficiency virus type 1 protease (Human immunodeficiency virus 1)
log10 IC95: 1.40

Compound: CC(C)(C)NC(=O)[C@@H]1C[C@@H]2CCCC[C@@H]2CN1C[C@@H](O)[C@H](Cc1ccccc1)NC(=O)[C@H](CC(N)=O)NC(=O)c1ccc2ccccc2n1
Tested Target: Human immunodeficiency virus type 1 protease (Human immunodeficiency virus 1)
log10 IC95: 1.34

Then there is this compound:
Query: Provide Human immunodeficiency virus type 1 protease (Human immunodeficiency virus 1) log10 IC95 reading for CC(C)(C)NC(=O)[C@@H]1C[C@@H]2CCCC[C@@H]2CN1C[C@@H](O)[C@H](Cc1ccccc1)NC(=O)[C@@H](NC(=O)c1ccc2ccccc2n1)C1CCOC1 (stereo partly drawn) .
Response: 0.90

###

Biological target: Human immunodeficiency virus type 1 protease (Human immunodeficiency virus 1, UniProt Q72874)
Assay: Tested for inhibitory concentration against HIV-1 protease
Returns the class for an entry based on its IC50. Class ranges: low bracket (below 0.1 nM), middle bracket (0.1 nM to below 0.6 nM), high bracket (0.6 nM or more)

Compound: CC(C)(C)NC(=O)[C@@H]1C[C@@H]2CCCC[C@@H]2CN1C[C@@H](O)[C@H](Cc1ccccc1)NC(=O)[C@@H](NC(=O)c1cc(=O)c2ccccc2o1)[C@H]1CCOC1
Qualitative Label: middle bracket

Compound: COC(=O)c1nc(Cl)c(N[C@H](C(=O)N[C@@H](Cc2ccccc2)[C@H](O)CN2C[C@H]3CCCC[C@H]3C[C@H]2C(=O)NC(C)(C)C)[C@H]2CCOC2)nc1N
Qualitative Label: middle bracket

Compound: CC(C)(C)NC(=O)[C@@H]1C[C@@H]2CCCC[C@@H]2CN1C[C@@H](O)[C@H](Cc1ccccc1)NC(=O)[C@@H](NC(=O)c1cnccn1)[C@H]1CCOC1
Qualitative Label: high bracket

Compound: CC(C)[C@H](NC(=O)c1cnc2ccccc2n1)C(=O)N[C@@H](Cc1ccccc1)[C@H](O)CN1C[C@H]2CCCC[C@H]2C[C@H]1C(=O)NC(C)(C)C
Qualitative Label: middle bracket

Compound: CC(C)(C)NC(=O)[C@@H]1C[C@@H]2CCCC[C@@H]2CN1C[C@@H](O)[C@H](Cc1ccccc1)NC(=O)[C@@H](NC(=O)c1ccc2ccccc2n1)C1CCOCC1
Qualitative Label: high bracket

Query: Field: class (IC50) — entry: CN(C)c1nc(N)c(C(=O)N[C@H](C(=O)N[C@@H](Cc2ccccc2)[C@H](O)CN2C[C@H]3CCCC[C@H]3C[C@H]2C(=O)NC(C)(C)C)[C@H]2CCOC2)nc1Cl
Response: middle bracket

Query: Field: class (IC50) — entry: CC(C)(C)NC(=O)[C@@H]1C[C@@H]2CCCC[C@@H]2CN1C[C@@H](O)[C@H](Cc1ccccc1)NC(=O)[C@@H](NC(=O)c1ccc2ccccc2n1)C1CCOC1 (stereo partly specified)
Response: low bracket

Query: Field: class (IC50) — entry: CN(C)c1ncc(C(=O)N[C@H](C(=O)N[C@@H](Cc2ccccc2)[C@H](O)CN2C[C@H]3CCCC[C@H]3C[C@H]2C(=O)NC(C)(C)C)[C@H]2CCOC2)nc1Cl
Response: low bracket

Query: Field: class (IC50) — entry: CC(C)(C)NC(=O)[C@@H]1C[C@@H]2CCCC[C@@H]2CN1C[C@@H](O)[C@H](Cc1ccccc1)NC(=O)[C@@H](NC(=O)c1ccc2ccccc2n1)[C@@H]1CCSC1
Response: high bracket

Query: Field: class (IC50) — entry: CN1CCN(c2ncc(C(=O)N[C@H](C(=O)N[C@@H](Cc3ccccc3)[C@H](O)CN3C[C@H]4CCCC[C@H]4C[C@H]3C(=O)NC(C)(C)C)[C@H]3CCOC3)nc2Cl)CC1
Response: low bracket

###

Biological target: UniProtKB P88142
Sequence (P88142 whole entry): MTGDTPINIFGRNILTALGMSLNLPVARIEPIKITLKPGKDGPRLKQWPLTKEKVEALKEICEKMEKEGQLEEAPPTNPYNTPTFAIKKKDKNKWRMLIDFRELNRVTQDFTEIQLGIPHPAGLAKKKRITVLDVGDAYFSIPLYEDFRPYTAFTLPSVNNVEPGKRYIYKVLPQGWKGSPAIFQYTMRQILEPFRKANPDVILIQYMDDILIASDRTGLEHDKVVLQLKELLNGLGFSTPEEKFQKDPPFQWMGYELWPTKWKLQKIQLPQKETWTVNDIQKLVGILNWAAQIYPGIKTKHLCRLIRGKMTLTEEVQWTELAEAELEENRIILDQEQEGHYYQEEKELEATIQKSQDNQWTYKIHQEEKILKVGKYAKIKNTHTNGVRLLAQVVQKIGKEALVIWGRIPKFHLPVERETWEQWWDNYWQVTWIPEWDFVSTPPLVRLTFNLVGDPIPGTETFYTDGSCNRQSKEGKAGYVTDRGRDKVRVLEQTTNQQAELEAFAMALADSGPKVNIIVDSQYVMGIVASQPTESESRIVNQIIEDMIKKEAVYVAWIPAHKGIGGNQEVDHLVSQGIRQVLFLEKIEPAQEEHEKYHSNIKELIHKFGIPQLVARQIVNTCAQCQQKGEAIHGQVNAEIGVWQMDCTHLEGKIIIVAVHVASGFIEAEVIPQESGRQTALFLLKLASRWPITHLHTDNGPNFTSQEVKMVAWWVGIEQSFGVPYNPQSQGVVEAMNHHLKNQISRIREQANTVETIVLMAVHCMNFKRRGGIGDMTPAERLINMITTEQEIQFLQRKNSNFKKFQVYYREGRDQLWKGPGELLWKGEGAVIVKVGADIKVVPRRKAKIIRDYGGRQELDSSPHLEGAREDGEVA
Experiment: Tested for inhibitory concentration against HIV-2 protease
Experimental Endpoint: IC50 (nM)
Note: unit nM is implicit; provide only the numeric part.

Field: example entries. Status: answers known.
Molecule: CC(C)(C)NC(=O)[C@@H]1C[C@@H]2CCCC[C@@H]2CN1C[C@@H](O)[C@H](Cc1ccccc1)NC(=O)[C@@H](NC(=O)c1ccc2ccccc2n1)C1CCOC1 (stereo not given in full)
Unit: nM
Value Measured: 0.24
//
Molecule: COC(=O)c1nc(Cl)c(N[C@H](C(=O)N[C@@H](Cc2ccccc2)[C@H](O)CN2C[C@H]3CCCC[C@H]3C[C@H]2C(=O)NC(C)(C)C)[C@H]2CCOC2)nc1N
Unit: nM
Value Measured: 24.9
//
Molecule: CC(C)(C)NC(=O)[C@@H]1C[C@@H]2CCCC[C@@H]2CN1C[C@@H](O)[C@H](Cc1ccccc1)NC(=O)[C@H](CC(N)=O)NC(=O)c1ccc2ccccc2n1
Unit: nM
Value Measured: 0.5
//
Molecule: CN1CCN(c2ncc(C(=O)N[C@H](C(=O)N[C@@H](Cc3ccccc3)[C@H](O)CN3C[C@H]4CCCC[C@H]4C[C@H]3C(=O)NC(C)(C)C)[C@H]3CCOC3)nc2Cl)CC1
Unit: nM
Value Measured: 0.18

Then there is this molecule:
Query: Provide UniProtKB P88142 IC50 reading for CC(C)[C@H](NC(=O)c1ccc2ccccc2n1)C(=O)N[C@@H](Cc1ccccc1)[C@H](O)CN1C[C@H]2CCCC[C@H]2C[C@H]1C(=O)NC(C)(C)C .
Response: 3.2

###

The entries below come with measured IC95 values attached.
Target: UniProt Q72874
Assay: Tested for inhibitory concentration against spread of HIV-1 in MT-4 human T-lymphoid cells infected with IIIb isolate
Format: functional, cell-based
Note: unit nM is implicit; provide only the numeric part.

Field: example entries. Status: answers known.
Chemical Structure: CC(C)(C)NC(=O)[C@@H]1C[C@@H]2CCCC[C@@H]2CN1C[C@@H](O)[C@H](Cc1ccccc1)NC(=O)[C@@H](NC(=O)c1cc(=O)c2ccccc2o1)[C@H]1CCOC1
Tested Target: UniProt Q72874
IC95, nM: 25
//
Chemical Structure: CN(C)c1ncc(C(=O)N[C@H](C(=O)N[C@@H](Cc2ccccc2)[C@H](O)CN2C[C@H]3CCCC[C@H]3C[C@H]2C(=O)NC(C)(C)C)[C@H]2CCOC2)nc1Cl
Tested Target: UniProt Q72874
IC95, nM: 12
//
Chemical Structure: CC(C)[C@H](NC(=O)c1ccc2ccccc2n1)C(=O)N[C@@H](Cc1ccccc1)[C@H](O)CN1C[C@H]2CCCC[C@H]2C[C@H]1C(=O)NC(C)(C)C
Tested Target: UniProt Q72874
IC95, nM: 100

Then there is this molecule:
Query: Provide UniProt Q72874 IC95 reading for CN(C)c1nc(N)c(C(=O)N[C@H](C(=O)N[C@@H](Cc2ccccc2)[C@H](O)CN2C[C@H]3CCCC[C@H]3C[C@H]2C(=O)NC(C)(C)C)[C@H]2CCOC2)nc1Cl .
Response: 25
